assay: RNA encapsulation efficacy by Quant-IT Ribogreen kit; type: physicochemical; details: LNP with cirRNA (SEQ ID NO: 1)
OBSERVABLE: Encapsulation Efficiency % (%)

MOLECULE	Encapsulation Efficiency %, %
CCCCC/C=C\CCOC(=O)CCCCCN(CCCCCC(=O)OCC(CCCCCCCC)CCCCCCCCCC)CCOC(=O)NCCN1CCCCC1 (centres unmarked)	86
CCCCC/C=C\C/C=C\CCCCCCCCN(CCCCCCCC(=O)OC(CCCCCCCC)CCCCCCCC)CCOC(=O)NCCN1CCOCC1	90
CCCCCCCCCC(=O)OCCCCCCCN(CCCCCCCCOC(=O)C(CCCCCC)CCCCCCCC)CCOC(=O)NCCCN(C)C (centres unmarked)	94
CCCCCCCC/C=C\CCCCCCCCN(CCCCCCCCOC(=O)C(CCCCCC)CCCCCCCC)CCOC(=O)NCCN(C)C (centres unmarked)	94
CCCCCCCCCCC(CCCCCCCC)COC(=O)CCCCCN(CCCCCC(=O)OCC(CCCCCCCC)CCCCCCCCCC)CCOC(=O)NCCN1CCN(C)CC1 (centres unmarked)	82
CCCCC/C=C\C/C=C\CCCCCCCCN(CCCCCCCC(=O)OC(CCCCCCCC)CCCCCCCC)CCOC(=O)NCCN1CCCCC1	95
CCCCCCCOC(=O)CCCCCCCCCN(CCCCCCCCCC(=O)OCCCCCCC)CCOC(=O)NCCCN(CC)CC	96
CCCCCCCCC(CCCCCC)C(=O)OCCCCCCCCN(CCCCCCCCOC(=O)C(CCCCCC)CCCCCCCC)CCCNCCCN(CC)CC (centres unmarked)	94
CCCCCCCCCCCOC(=O)CCCCCN(CCCCCCCC(=O)OC(CCCCCCCC)CCCCCCCC)CCOC(=O)NCCN1CCCCC1	91
CCCCCCCCCC(=O)OCCCCCCCN(CCCCCCCCOC(=O)C(CCCCCC)CCCCCCCC)CCOC(=O)NCCN(C)C (centres unmarked)	96
CCCCC/C=C\C/C=C\CCCCCCCCN(CCCCCCCC(=O)OC(CCCCCCCC)CCCCCCCC)CCOC(=O)NCCCN(C)C	99
CCCCCCCCCCC(CCCCCCCC)COC(=O)CCCCCN(CCCCCC(=O)OCC(CCCCCCCC)CCCCCCCCCC)CCCOC(=O)NCCN1CCCCCC1 (centres unmarked)	92
CCCCCCCCCCCOC(=O)CCCCCN(CCCCCCCCOC(=O)C(CCCCCC)CCCCCCCC)CCOC(=O)NCCN1CCCC1 (centres unmarked)	95
CCCCCCCCC(CCCCCC)C(=O)OCCCCCCCCN(CCCCCCCCOC(=O)C(CCCCCC)CCCCCCCC)CCCOC(=O)NCCN1CCC1 (centres unmarked)	94
CCCCCCCCC(CCCCCCCC)OC(=O)CCCCCCCN(CCCCCCCCOC(=O)C(CCCCCC)CCCCCCCC)CCOC(=O)NCCCn1ccnc1 (centres unmarked)	86
CCCCC/C=C\C/C=C\CCCCCCCCN(CCCCCCCC(=O)OC(CCCCCCCC)CCCCCCCC)CCCOC(=O)NCCN1CCOCC1	94
CCCCCCCCC(CCCCCC)C(=O)OCCCCCCCCN(CCCCCCCCOC(=O)C(CCCCCC)CCCCCCCC)CCOC(=O)NCCN(C)C (centres unmarked)	96
CCCCCCCCC(CCCCCCCC)OC(=O)CCCCCCCN(CCCCCCCCOC(=O)C(CCCCCC)CCCCCCCC)CCOC(=O)NCCCN(C)C (centres unmarked)	87
CCCCCCCCC(CCCCCCCC)OC(=O)CCCCCCCN(CCCCCCCCOC(=O)C(CCCCCC)CCCCCCCC)CCNC(=O)OCCN(C)C (centres unmarked)	95
CCCCC/C=C\CCOC(=O)CCCCCN(CCCCCCCCOC(=O)C(CCCCCC)CCCCCCCC)CCOC(=O)NCCCN(CC)CC (centres unmarked)	90
CCCCCCCCC(CCCCCCCC)OC(=O)CCCCCCCN(CCCCCCCCOC(=O)C(CCCCCC)CCCCCCCC)CCCNCCN(C)C (centres unmarked)	92
CCCCCCCCCCCOC(=O)CCCCCN(CCCCCCCCOC(=O)C(CCCCCC)CCCCCCCC)CCOC(=O)NCCN1CCOCC1 (centres unmarked)	92
CCCCC/C=C\C/C=C\CCCCCCCCN(CCCCCC(=O)OCC(CCCCCCCC)CCCCCCCCCC)CCOC(=O)NCc1ncc[nH]1 (centres unmarked)	96
CCCCCCCCCCC(CCCCCCCC)COC(=O)CCCCCN(CCCCCC(=O)OCC(CCCCCCCC)CCCCCCCCCC)CCOC(=O)NCc1ncc[nH]1 (centres unmarked)	77
CCCCCCCCC(CCCCCC)C(=O)OCCCCCCCCN(CCCCCCCCOC(=O)C(CCCCCC)CCCCCCCC)CCCOC(=O)NCCN1CCCC1 (centres unmarked)	92
CCCCCCCCC(CCCCCC)C(=O)OCCCCCCCCN(CCCCCCCCCCC(=O)OCCCCCC)CCOC(=O)NCCN1CCN(C)CC1 (centres unmarked)	100

---

system: BALB/C mice; assay: Local tolerance determination by footpad injection; format: in vivo; details: cirRNA (SEQ ID NO: 1) LNP, 0.175 mg*kg-1 subcutaneous into the footpad, 24 hours post minus prior
OBSERVABLE: Footpad Thickness (24 h−0 h, mm)
Write the number in mm without appending the unit.

COMPOUND	TEST RESULT
CCCCCCCCC(CCCCCC)C(=O)OCCCCCCCCN(CCCCCCCCOC(=O)C(CCCCCC)CCCCCCCC)CCCOC(=O)NCCN(C)C (stereo not shown)	0.63
CCCCC/C=C\C/C=C\CCCCCCCCN(CCCCCCCC(=O)OC(CCCCCCCC)CCCCCCCC)CCCOC(=O)NCCN(C)C	0.65
CCCCCCCCCCC(CCCCCCCC)COC(=O)CCCCCN(CCCCCCCCOC(=O)C(CCCCCC)CCCCCCCC)CCOC(=O)NCCN(C)C (stereo not shown)	1.11

## Task State the recorded Footpad Thickness (24 h−0 h, mm) for this entry: CCCCCCCCC(CCCCCCCC)OC(=O)CCCCCCCN(CCCCCCCCOC(=O)C(CCCCCC)CCCCCCCC)CCCOC(=O)NCCN1CCCCCC1 (stereo not shown)
## Result 0.80

## Task Same for CCCCCCCCCCCOC(=O)CCCCCN(CCCCCCCC(=O)OC(CCCCCCCC)CCCCCCCC)CCOC(=O)NCCN1CCCCC1
## Result 0.32

## Task Now consider CCCCC/C=C\C/C=C\CCCCCCCCN(CCCCCCCC(=O)OC(CCCCCCCC)CCCCCCCC)CCCOC(=O)NCc1ncc[nH]1 .
## Result 0.40

## Task Follow-up item: CCCCC/C=C\C/C=C\CCCCCCCCN(CCCCCCCC(=O)OC(CCCCCCCC)CCCCCCCC)CCOC(=O)NCCN(C)C
## Result 1.09

---

assay: LNP size and polydispersity index (PDI) by dynamic light scattering; format: physicochemical; details: LNP with cirRNA (SEQ ID NO: 1); in nm (unit assumed)
OBSERVABLE: Size

Record excerpt, results attached:
MOLECULE	Size
CCCCCCCCCC(=O)OCCCCCCCN(CCCCCCCCOC(=O)C(CCCCCC)CCCCCCCC)CCOC(=O)NCCN1CCCCC1 (stereo not shown) [Lipid 196]	89.57
CCCCCCCC/C=C\CCCCCCCCN(CCCCCCCCOC(=O)C(CCCCCC)CCCCCCCC)CCOC(=O)NCCCN(CC)CC (stereo not shown) [Lipid 213]	114.2
CCCCCCCCCCC(CCCCCCCC)COC(=O)CCCCCN(CCCCCC(=O)OCC(CCCCCCCC)CCCCCCCCCC)CCOC(=O)NCCN1CCOCC1 (stereo not shown) [Lipid 174]	57.29
CCCCC/C=C\C/C=C\CCCCCCCCN(CCCCCCCC(=O)OC(CCCCCCCC)CCCCCCCC)CCCOC(=O)NCCN(C)C [Lipid 270]	66.18
CCCCCCCCC(CCCCCC)C(=O)OCCCCCCCCN(CCCCCCCCCCC(=O)OCCCCCC)CCOC(=O)NCCN(C)C (stereo not shown) [Lipid 43]	91.2

1: CCCCCCCC/C=C\CCCCCCCCN(CCCCCCCCOC(=O)C(CCCCCC)CCCCCCCC)CCOC(=O)NCCN1CCOCC1 (stereo not shown) [Lipid 215]
2: CCCCCCCCCCCOC(=O)CCCCCN(CCCCCCCCOC(=O)C(CCCCCC)CCCCCCCC)CCOC(=O)NCCN1CCCC1 (stereo not shown) [Lipid 226]
## Task Input pair: 1 , 2 . Output: entry with lower Size. Use the label to indicate which entry you chose.
## Result 1

---

system: BALB/C mice; test: In vivo expression, whole-body luminescence (IVIS); conditions: cirRNA (SEQ ID NO: 1) LNPs, BALB/C mice
OBSERVABLE: In vivo Expression (Whole Body)
Number, no unit, nothing else.

## Task Notebook: pull reported In vivo Expression (Whole Body) for BALB/C mice, entry CCCCCCCOC(=O)CCCCCCCCCN(CCCCCCCCCC(=O)OCCCCCCC)CCOC(=O)NCCCN(CC)CC [Lipid 122]
## Result 1.43E+05

## Task Then this molecule: CCCCC/C=C\CCOC(=O)CCCCCN(CCCCCCCCOC(=O)C(CCCCCC)CCCCCCCC)CCOC(=O)NCCN1CCCCC1 (stereo not shown) [Lipid 192]
## Result 8.52E+07

## Task Another: CCCCCCCCC(CCCCCCCC)OC(=O)CCCCCCCN(CCCCCCCCOC(=O)C(CCCCCC)CCCCCCCC)CCCOC(=O)NCCN1CCCCCC1 (stereo not shown) [Lipid 354]
## Result 6.08E+08

## Task Entry to check: CCCCC/C=C\C/C=C\CCCCCCCCN(CCCCCCCC(=O)OC(CCCCCCCC)CCCCCCCC)CCCOC(=O)NCCCN(CC)CC [Lipid 272]
## Result 6.35E+06

## Task Here is the next molecule: CCCCCCCC/C=C\CCCCCCCCN(CCCCCCCCOC(=O)C(CCCCCC)CCCCCCCC)CCOC(=O)NCc1ncc[nH]1 (stereo not shown) [Lipid 212]
## Result 4.68E+06

## Task CCCCCCCCC(CCCCCC)C(=O)OCCCCCCCCN(CCCCCCCCOC(=O)C(CCCCCC)CCCCCCCC)CCCOC(=O)NCCN1CCCCC1 (stereo not shown) [Lipid 380] ?
## Result 4.50E+08

## Task Same question for CCCCCCCCC(CCCCCCCC)OC(=O)CCCCCCCN(CCCCCCCCOC(=O)C(CCCCCC)CCCCCCCC)CCOC(=O)NCCCn1ccnc1 (stereo not shown) [Lipid 147] please.
## Result 5.02E+07

## Task Entry to check: CCCCCCCCC(CCCCCCCC)OC(=O)CCCCCCCN(CCCCCCCCOC(=O)C(CCCCCC)CCCCCCCC)CCCOC(=O)NCCN1CCC1 (stereo not shown) [Lipid 353]
## Result 1.48E+06
